Numbers sourced from patent US20200325187A1.

Target: T1, rabbit VEGF-A (rabbit, UniProt G1T1L9 1-398)
T1 sequence: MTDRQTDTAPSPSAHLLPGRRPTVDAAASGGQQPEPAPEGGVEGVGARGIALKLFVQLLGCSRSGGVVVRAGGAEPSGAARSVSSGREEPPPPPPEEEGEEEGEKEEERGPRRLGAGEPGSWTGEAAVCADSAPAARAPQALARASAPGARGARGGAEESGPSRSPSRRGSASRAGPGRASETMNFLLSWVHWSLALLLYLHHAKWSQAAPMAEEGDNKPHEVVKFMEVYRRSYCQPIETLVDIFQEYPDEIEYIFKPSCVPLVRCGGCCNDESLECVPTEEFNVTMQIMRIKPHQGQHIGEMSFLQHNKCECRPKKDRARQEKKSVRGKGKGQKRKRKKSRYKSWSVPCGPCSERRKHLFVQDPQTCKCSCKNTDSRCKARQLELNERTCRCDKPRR
Experiment: SPR
reported endpoint: Kd (nM)
Give bare numbers, in nM.

Batch: Kd for all items listed.
1. GCDVMQPYWGCKQDSDCLAGCVCHWYNSCG (designed binder, also called EM63) [VEGF_CKP9.63]
2. GCDVMQPYWGCGPDIDCLAGCVCHWYNSCG (designed binder, also called L2.9.63.12) [VEGF_CKP9.63.12]
3. GCNIMLPFWGCGRDFECLAGCVCQYYQSCG (designed binder) [VEGF_CKP9.54.90]
4. GCNIMLPFWGCKQDSDCLAGCVCQYYQSCG (designed binder, also called EM54) [VEGF_CKP9.54]

311
2.54
1.14
133
